FYI, the data here is from ChEMBL document CHEMBL2010743.

- Test method notes: Cytotoxicity in mouse B16 cells assessed as cell viability at 1 uM after 72 hrs
- Format: cell-based
- Test parameters: read-out: Activity
Property: viability at 72 h, 1 µM (%)
Give bare numbers, in %.

Study these solved cases before continuing.
COc1ccc(C(=O)NCc2ccc(O)cc2O)cc1C12CC3CC(CC(C3)C1)C2 100
O=C(NCc1ccc(O)cc1O)c1ccc(O)c(C23CC4CC(CC(C4)C2)C3)c1 99

Request: viability at 72 h, 1 µM for O=C(NCc1ccc(O)cc1O)c1cc(C23CC4CC(CC(C4)C2)C3)c(O)cc1O ?
Response: 86

----------
- Test method notes: in vitro
- Test parameters: mouse, B16 cells
- Description: Cytotoxicity in mouse B16 cells assessed as cell viability at 10 uM after 72 hrs
Property: viability at 72 h, 10 µM

O=C(NCc1ccc(O)cc1O)c1cc(C23CC4CC(CC(C4)C2)C3)c(O)cc1O 62%
O=C(NCc1ccc(O)cc1O)c1ccc(O)cc1O 100%
O=C(NCc1ccc(O)cc1O)c1ccc(O)c(C23CC4CC(CC(C4)C2)C3)c1 41%
COc1ccc(C(=O)NCc2ccc(O)cc2O)c(O)c1 96%
COc1ccc(C(=O)NCc2ccc(O)cc2O)c(OC)c1 100%
COc1cc(OC)c(C23CC4CC(CC(C4)C2)C3)cc1C(=O)NCc1ccc(O)cc1O 95%
COc1ccc(C(=O)NCc2ccc(O)cc2O)cc1C12CC3CC(CC(C3)C1)C2 44%

Request: Please give the measured viability at 72 h, 10 µM for this compound: COc1cc(O)c(C(=O)NCc2ccc(O)cc2O)cc1C12CC3CC(CC(C3)C1)C2
Response: 100%

----------
- Test system: B16
- Test method notes: cells
- Test parameters: Mus musculus
- Description: Antimelanogenic activity in mouse B16 cells assessed as inhibition of melanogenesis
Property: pIC50
Give bare numbers, as −log10 of the molar value.

Consider the reported pIC50 for these compounds:
COc1ccc(C(=O)NCc2ccc(O)cc2O)c(OC)c1 4.85
COc1cc(O)c(C(=O)NCc2ccc(O)cc2O)cc1C12CC3CC(CC(C3)C1)C2 5.74
COc1cc(OC)c(C23CC4CC(CC(C4)C2)C3)cc1C(=O)NCc1ccc(O)cc1O 5.96
CCCCc1ccc(O)cc1O 4.70
O=C(NCc1ccc(O)cc1O)c1ccc(O)cc1O 4.57

Proceeding to the next compound to report its pIC50.
Request: Field request: pIC50 | item: COc1ccc(C(=O)NCc2ccc(O)cc2O)c(O)c1
Response: 4.56
